- protocol text: gradient 5% acetonitrile 3 min, to 50% in 2 min, to 85% in 15 min, held 3 min, 100 µL/min
- particulars: column: Zorbax Extend-C18 2.1 x 50 mm; eluents: water / acetonitrile, 0.1% formic acid
parameter measured: RP-LC retention time (s)

Consider the following illustrative entries.
>>> df
                                   compound    parameter_measured  recorded_measurement
0  COCCCNC(=O)C1CCCN(c2ccc(Sc3ccc(Br)cc3)nn2)C1 (stereo not given)  RP-LC retention time                   777
1  Cc1cc(NC(=O)C2CCN(C(=O)c3cc(-c4ccc5c(c4)OCO5)n[nH]3)CC2)no1  RP-LC retention time                   671
2        CCSc1nnc(NC(=O)CSc2ncnc3ccccc23)s1  RP-LC retention time                   733
3  CCOCCOC(=O)C1=C(C)NC2=C(C(=O)C(C(=O)OC)C(C)C2)C1c1ccccc1F (stereo not given)  RP-LC retention time                   862
4  COc1ccc(C2CC(=O)Nc3c(C(=O)O)cn(-c4cccc(F)c4)c32)cc1OC (stereo not given)  RP-LC retention time                   728

A = COc1ccccc1-n1nnc(C(=O)NCc2nc3ccccc3n2C)c1-c1ccccn1
B = Cc1cc(C)c2c(-n3cccc3)nn(CC(=O)Nc3ccc(C(C)C)cc3)c2n1
Lower value for measured RP-LC retention time? Options: A , B Return value: the label identifying the chosen record.
A

A = CCc1c(CN2CCN(c3ccccn3)CC2)csc1C
B = CCOC(=O)c1cc(C)nc2c1c(=O)n(Cc1cccc(C(F)(F)F)c1)c(=O)n2C
Given the listed records, identify the one among A and B with higher RP-LC retention time. Return value: the label identifying the chosen record.
B
(B: 1150 s, A: 596 s)

I = O=C(NCC(F)(F)F)c1ccc(N2CCCC2)nn1
II = CCn1c(=O)c(C(=O)NCc2ccc(F)cc2F)nc2cccnc21
Given the listed records, identify the one among I and II with higher RP-LC retention time. Return value: the label identifying the chosen record.
II
